Hey, just so you know, these numbers are from the nanobody polyreactivity screen of Harvey et al. (2022).

- ASSAY NAME: yeast display, Sf9 membrane polyspecificity reagent, FACS + sequencing; frameworks hold sequencing errors
MEASURED PARAMETER: polyreactivity (PSR sort gate)

Enquiry: Any idea what polyreactivity (PSR sort gate) was measured for `QVQLVESGGGLVQAGGRLRLSCAASGNTLRYYAMGWYRQAPGKERELVAAISESGGRTYYADSVKGRFTISRDNAKNTVYLQMNSLKPEDTAVYYCAASRWGGTWWYGYNYWGQGTQVTVSS` ?
Return: high polyreactivity

Enquiry: Any idea what polyreactivity (PSR sort gate) was measured for `QVQLVESGGGLVQAGGSLRLSCAASGSNLTFYAMGWYRQAPGKERELVAAITWRGGSTYYADSVKGRFTISRDNAKNTVYLQMNSLKPEDTAVYYCAAEQVGYYLNWRDYWGQGTQVTVSS` ?
Return: high polyreactivity

Enquiry: Any idea what polyreactivity (PSR sort gate) was measured for `QVQVVESGGGLVQAGGSLRLSCAASGSIFSWNAMGWYRQAPGKERELVAAISKRGTSTYYADSVKGRFTISRDNAKNTVYLQMNSLKPEDTAVYYCAVSRIVDFGQKMYYWGQGTQVTVSS` ?
Return: high polyreactivity

Enquiry: Any idea what polyreactivity (PSR sort gate) was measured for `QVQLVESGGGLVQAGGSLRLSCAASGFIFVGYAMGWYRQAPGKERELVAAISWDGGSTDYADSVKGRFTISRDNAKNTVYLQMNSLKPEDTAVYYCAASYQYWGFWYEYWGQGTQVTVSS` ?
Return: high polyreactivity
